Target: T1, His-tagged P3028 (human, not fully specified)
T1 construct: the tag is put first after 'PGE73=His-tag-P3028'; also called PGE73; not shown: His-tag
T1 peptide: {His‑tag}-VFDEFKPLVEEPQNLIK
Test: chip ELISA
No end group written: not given here.
Assign class by ELISA signal: not lower than 400 means 1 (yes); lower than 400 means 0 (no).

Binder	Assigned category
KKLDTFFVKLSLFLER [P28R T14L]	0 (no)
KKLDMFFVKLSLFTER [P28R T5M]	1 (yes)
KKLDTFFVKYSLFTER [P28R L10Y]	0 (no)
KKWDTFFVKLSLFTER [P28R L3W]	0 (no)
KKLDTFFVKLSRFTER [P28R L12R]	1 (yes)
KDLDTFFVKLSLFTER [P28R K2D]	0 (no)
KKLDTFFVKLSLTTER [P28R F13T]	1 (yes)
